test: Pharmacokinetic parameters in Sprague-Dawley rats; conditions: rat, in vivo
Reported Endpoint: Cmax (ng/mL)
Express your answer in ng/mL, writing the number without its unit.

Challenge: Which value of Cmax has been reported for Cc1ccc(NC(=O)c2ccc(CN3CCN(C)CC3)cc2)cc1Nc1nccc(-c2cncc(-c3ccn(C)n3)c2)n1 [Compound 832] in the records?
Response given: 416

Challenge: Which value of Cmax has been reported for Cc1ccc(NC(=O)c2ccc(CN3CCN(C)CC3)cc2)cc1Nc1nccc(-c2cncc(-c3nccs3)c2)n1 [Compound 8270] in the records?
Response given: 210

Challenge: Which value of Cmax has been reported for Cc1ccc(NC(=O)c2ccc(CN3CCN(C)CC3)cc2)cc1Nc1nccc(-c2cncc(-c3oncc3C)c2)n1 [Compound 809] in the records?
Response given: 170
